Target Or Test System: mTORC1 (Homo sapiens, UniProt P42345+Q8N122+Q9BVC4)
Method: Inhibition of mTORC1 in human PC-3 cells assessed as measuring phosphorylated S6K level incubated for 24 hrs by AlphaLISA assay
Assay type: cell-based

Compound	IC50
CO[C@@H]1C[C@H](C[C@@H](C)[C@@H]2CC(=O)[C@H](C)/C=C(\C)[C@@H](O)[C@@H](OC)C(=O)[C@H](C)C[C@H](C)/C=C/C=C/C=C(\C)C(OCCO)C[C@@H]3CC[C@@H](C)[C@@](O)(O3)C(=O)C(=O)N3CCCC[C@H]3C(=O)O2)CC[C@H]1OCCCN1CCOC(C)(C)C1 (some centres not stated)	< 0.316 nM
CO[C@@H]1C[C@H](C[C@@H](C)[C@@H]2CC(=O)[C@H](C)/C=C(\C)[C@@H](O)[C@@H](OC)C(=O)[C@H](C)C[C@H](C)/C=C/C=C/C=C(\C)C(OCCO)C[C@@H]3CC[C@@H](C)[C@@](O)(O3)C(=O)C(=O)N3CCCC[C@H]3C(=O)O2)CC[C@H]1OCCCN1CCOC[C@@H]1C (some centres not stated)	< 0.316 nM
